Where do these numbers come from? They come from the supplement of paper PMC9694430.

# Tested on: LOC_OS05G16824-cb004;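 also: purified Escherichia coli-expressed rice kinase domain construct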
# experiment.description: thermal shift delta Tm vs DMSO control; higher = stronger stabilization (binding)
# run.parameters: 12.5 µM; protein concentration 2 µM
quantity.measured: thermal shift delta Tm (°C)
Give the value in °C but do not write °C after it.

>>> meas_value("O=C(O)[C@]1(Cc2cccc(Nc3nccs3)n2)CC[C@@H](Oc2cccc(Cl)c2F)CC1")
2.5
>>> meas_value("COc1cc2ncnc(Nc3ccc(F)c(Cl)c3)c2cc1NC(=O)/C=C/CN1CCCCC1")
-1.53

Now for the compound whose thermal shift delta Tm we want.
Under LOC_OS05G16824-cb004: thermal shift delta Tm value of C=CC(=O)Nc1cccc(Nc2nc(Nc3ccc(NC4CN(CCF)C4)cc3OC)ncc2C(F)(F)F)c1 ?
1.25
